Measured HepSE_cholelithiasis values are reported for all entries that follow.
test system: Hepatotoxicity; note: call rule not given here;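 note: hepatic side effect score for cholelithiasis, drawn from the DILIps training data for predicting drug-induced liver injury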
Where a SMILES comes first, the peptide text is derived from it. Bridges are numbered along the chain shown (N, C = ends). [ ]: non-standard residue; d: D form. hArg = N=C(N)NCCCC[C@H](N)C(=O)O; Mpa = O=C(O)CCS
measuredQuantity: HepSE_cholelithiasis

compound="Cn1nnc2c(C(N)=O)ncn2c1=O [TEMOZOLOMIDE]" experimentaltarget=Hepatotoxicity measuredquantity=HepSE_cholelithiasis obsvalue=0
compound="Nc1nc2[nH]cc(CCc3ccc(C(=O)N[C@@H](CCC(=O)O)C(=O)O)cc3)c2c(=O)[nH]1 [PEMETREXED]" experimentaltarget=Hepatotoxicity measuredquantity=HepSE_cholelithiasis obsvalue=0
compound="CCN(CC)CCOc1ccc(C(=C(Cl)c2ccccc2)c2ccccc2)cc1 [CLOMIPHENE]" experimentaltarget=Hepatotoxicity measuredquantity=HepSE_cholelithiasis obsvalue=0
compound="N=C(N)NCCCC[C@@H]1NC(=O)CCSSC[C@@H](C(N)=O)NC(=O)[C@@H]2CCCN2C(=O)[C@H](Cc2c[nH]c3ccccc23)NC(=O)[C@H](CC(=O)O)NC(=O)CNC1=O [EPTIFIBATIDE] ([Mpa][hArg]GDWPC-NH2; disulfide 1-7)" experimentaltarget=Hepatotoxicity measuredquantity=HepSE_cholelithiasis obsvalue=0
compound="Cn1c(=O)c2c(ncn2C)n(C)c1=O [CAFFEINE]" experimentaltarget=Hepatotoxicity measuredquantity=HepSE_cholelithiasis obsvalue=0
compound="CC(=O)NS(=O)(=O)c1ccc(N)cc1 [SULFACETAMIDE]" experimentaltarget=Hepatotoxicity measuredquantity=HepSE_cholelithiasis obsvalue=0
compound="CCc1c(C)[nH]c2c1C(=O)C(CN1CCOCC1)CC2 (stereo unspecified) [MOLINDONE]" experimentaltarget=Hepatotoxicity measuredquantity=HepSE_cholelithiasis obsvalue=0
compound="CN[C@@H](C)Cc1ccccc1 [METHAMPHETAMINE]" experimentaltarget=Hepatotoxicity measuredquantity=HepSE_cholelithiasis obsvalue=0
compound="CCCC1O[C@@H]2C[C@H]3[C@@H]4CCC5=CC(=O)C=C[C@]5(C)[C@H]4[C@@H](O)C[C@]3(C)[C@]2(C(=O)CO)O1 (stereo partly specified) [BUDESONIDE]" experimentaltarget=Hepatotoxicity measuredquantity=HepSE_cholelithiasis obsvalue=0
compound="CC(=O)N(CC(O)CN(C(C)=O)c1c(I)c(C(=O)NCC(O)CO)c(I)c(C(=O)NCC(O)CO)c1I)c1c(I)c(C(=O)NCC(O)CO)c(I)c(C(=O)NCC(O)CO)c1I (stereo unspecified) [IODIXANOL]" experimentaltarget=Hepatotoxicity measuredquantity=HepSE_cholelithiasis obsvalue=0
compound="Cc1nccn1CC1CCc2c(c3ccccc3n2C)C1=O (stereo unspecified) [ONDANSETRON]" experimentaltarget=Hepatotoxicity measuredquantity=HepSE_cholelithiasis obsvalue=0
compound="O=C1CC[C@@]2(O)[C@H]3Cc4ccc(O)c5c4[C@@]2(CCN3CC2CC2)[C@H]1O5 [NALTREXONE]" experimentaltarget=Hepatotoxicity measuredquantity=HepSE_cholelithiasis obsvalue=1
compound="C[C@]1(O)CC[C@H]2[C@@H]3CCC4=CC(=O)CC[C@]4(C)[C@@]3(F)[C@@H](O)C[C@@]21C [FLUOXYMESTERONE]" experimentaltarget=Hepatotoxicity measuredquantity=HepSE_cholelithiasis obsvalue=0
compound="CCN(CC)CC#CCOC(=O)C(O)(c1ccccc1)C1CCCCC1 (stereo unspecified) [OXYBUTYNIN]" experimentaltarget=Hepatotoxicity measuredquantity=HepSE_cholelithiasis obsvalue=0
compound="CCN(CCO)CCCC(C)Nc1ccnc2cc(Cl)ccc12 (stereo unspecified) [HYDROXYCHLOROQUINE]" experimentaltarget=Hepatotoxicity measuredquantity=HepSE_cholelithiasis obsvalue=0
compound="CC1=C(CC(=O)O)c2cc(F)ccc2/C1=C\\c1ccc([S+](C)[O-])cc1 (stereo unspecified)" experimentaltarget=Hepatotoxicity measuredquantity=HepSE_cholelithiasis obsvalue=0
